Values were extracted from patent US6534524B1.

Assignment: determine reported % inhibition of the proliferation of HUVEC for the given molecules.
Tested on: human umbilical vein endothelial cells (HUVEC)
Assay: HUVEC proliferation assay (VEGF-stimulated, MTT);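 on % inhibition of the proliferation of HUVEC: relative to VEGF-stimulated control minus starvation-medium baseline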
Assay type: cell-based
Conditions: Library II, Y=S; 0.5 mM (column head; text: nominal 0.5 nM); crude reaction mixtures

Completed entries (count: 5):
[[record]]
molecule = "CC(CNC(=O)c1ccccc1Sc1ccc2c(/C=C/c3ccccn3)n[nH]c2c1)N(C)C (stereo not drawn)"
result = "−9%"

[[record]]
molecule = "CCCCC(=O)NNC(=O)c1ccccc1Sc1ccc2c(/C=C/c3ccccn3)n[nH]c2c1"
result = "40%"

[[record]]
molecule = "Cc1noc(NC(=O)c2ccccc2Sc2ccc3c(/C=C/c4ccccn4)n[nH]c3c2)c1C"
result = "15%"

[[record]]
molecule = "O=C(NCCN1CCNC1=O)c1ccccc1Sc1ccc2c(/C=C/c3ccccn3)n[nH]c2c1"
result = "5%"

[[record]]
molecule = "CCCCCC(C)NC(=O)c1ccccc1Sc1ccc2c(/C=C/c3ccccn3)n[nH]c2c1 (stereo not drawn)"
result = "−1%"


Hi! Can you tell me % inhibition of the proliferation of HUVEC for each of these molecules?
1. CS(=O)(=O)NNC(=O)c1ccccc1Sc1ccc2c(/C=C/c3ccccn3)n[nH]c2c1
2. O=C(NCC1(O)CCCCC1)c1ccccc1Sc1ccc2c(/C=C/c3ccccn3)n[nH]c2c1 [drawing 688]
3. CN(NC(=O)c1ccccc1Sc1ccc2c(/C=C/c3ccccn3)n[nH]c2c1)c1ccccc1
4. NS(=O)(=O)c1ccc(CNC(=O)c2ccccc2Sc2ccc3c(/C=C/c4ccccn4)n[nH]c3c2)cc1

Solution:
9%
26%
16%
1%

----------
System: human umbilical vein endothelial cells (HUVEC)
Test: HUVEC proliferation assay (VEGF-stimulated, MTT)
Type: cell-based
Settings: Homo sapiens, HUVEC, + albumin; read-out: HUVEC + albumin IC50
Assay metric: IC50 (nM)
Give bare numbers, in nM.

Completed entries (count: 2):
[[record]]
compound = "CCn1nc(C)cc1C(=O)Nc1cc(C(=O)c2ccc3c(/C=C/c4ccccn4)n[nH]c3c2)c(C)cc1C [Example 41(ll)]"
assay_metric = "IC50"
numeric_readout = 23

[[record]]
compound = "CCn1nc(C)cc1C(=O)Nc1cc(Nc2ccc3c(/C=C/c4ccccn4)n[nH]c3c2)c(F)cc1C [Example 48(a)]"
assay_metric = "IC50"
numeric_readout = 8.8


Hi! Can you tell me IC50 for each of these compounds?
1. O=C(c1cccc(NC(=O)c2ccno2)c1)c1ccc2c(/C=C/c3ccccc3)n[nH]c2c1 [Example 19(l)]
2. O=CNc1ccccc1/C=C/c1n[nH]c2cc(C(=O)c3cccc(NC(=O)c4ccccc4)c3)ccc12 [Example 43]

Solution:
100
24

----------
Target: unphosphorylated VEGF-R2Δ50 (FLVK) (Homo sapiens, UniProt P35968, DEL940-989/E990V)
Sequence (P35968 with tags, fused parts or gaps DEL940-989/E990V limits assumed): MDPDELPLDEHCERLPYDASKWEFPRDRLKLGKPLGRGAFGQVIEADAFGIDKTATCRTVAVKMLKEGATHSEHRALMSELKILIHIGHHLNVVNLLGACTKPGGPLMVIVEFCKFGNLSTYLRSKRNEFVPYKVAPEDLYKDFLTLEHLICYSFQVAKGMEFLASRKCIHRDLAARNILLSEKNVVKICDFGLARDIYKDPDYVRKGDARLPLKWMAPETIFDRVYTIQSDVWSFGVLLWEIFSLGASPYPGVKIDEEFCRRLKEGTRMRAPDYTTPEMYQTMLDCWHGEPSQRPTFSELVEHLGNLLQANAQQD
Experiment: VEGF-R2 coupled spectrophotometric assay, unphosphorylated VEGF-R2Δ50 (FLVK)
Details: FLVK Ki, Table 1
Assay metric: log10 Ki (log10 of the value in nM)
Recorded Ki (log10, nM)

[[record]]
compound = "O=C(NNc1ccccn1)c1ccccc1Sc1ccc2c(/C=C/c3ccccn3)n[nH]c2c1"
assay_metric = "log10 Ki"
numeric_readout = -0.08

[[record]]
compound = "CCn1nc(C)cc1C(=O)Nc1cccc(Oc2ccc3c(/C=C/c4c[nH]cn4)n[nH]c3c2)c1"
assay_metric = "log10 Ki"
numeric_readout = -1.10

[[record]]
compound = "Oc1ccc(-c2ccc3c(-c4cc5ccccc5o4)n[nH]c3c2)cc1OCc1ccccc1 [Example 2(e)]"
assay_metric = "log10 Ki"
numeric_readout = 1.60

[[record]]
compound = "Cc1cc(C(=O)Nc2cccc(C(=O)c3ccc4c(/C=C/c5ccccn5)n[nH]c4c3)c2)n[nH]1"
assay_metric = "log10 Ki"
numeric_readout = -1.00

[[record]]
compound = "O=C(Nc1cccc(C(=O)c2ccc3c(/C=C/c4ccccn4)n[nH]c3c2)c1)c1ccncc1"
assay_metric = "log10 Ki"
numeric_readout = -0.59


Hi! Can you tell me log10 Ki for each of these compounds?
1. CN(c1cccc(N)c1)c1ccc2c(/C=C/c3ccccc3)n[nH]c2c1
2. O=C(Nc1cccc(C(=O)c2ccc3c(-c4nc5ccccc5[nH]4)n[nH]c3c2)c1)c1ccccc1
3. O=C(Nc1ccccc1)c1ccccc1Sc1ccc2c(/C=C/c3ccccn3)n[nH]c2c1
4. CCn1nc(C)cc1C(=O)Nc1cc(C(=O)c2ccc3c(/C=C/c4ccccn4)n[nH]c3c2)ccc1C [Example 41(ee)]
5. O=C(NCc1cccc(F)c1)c1ccccc1Sc1ccc2c(/C=C/c3ccccn3)n[nH]c2c1

Solution:
1: 1.08; 2: -0.46; 3: -0.55; 4: -0.89; 5: -0.96

Hi! Can you tell me log10 Ki for each of these compounds?
1. CC(=O)Nc1cccc(Oc2ccc3c(/C=C/c4ccccc4)n[nH]c3c2)c1
2. Cc1cc(C(=O)Nc2cccc(C(=O)c3ccc4c(/C=C/c5ccccn5)n[nH]c4c3)c2)on1
3. C=C(c1cccc(N)c1)c1ccc2c(/C=C/c3ccccc3)n[nH]c2c1
4. C=C(c1cccc(NC(=O)c2ncc(C)s2)c1)c1ccc2c(/C=C/c3ccccc3)n[nH]c2c1
5. CN(c1cccc(NC(=O)OCc2ccccc2)c1)c1ccc2c(/C=C/c3ccccc3)n[nH]c2c1
6. COCOc1ccc(Oc2ccc3c(/C=C/c4ccccc4)n[nH]c3c2)cc1

Solution:
0.43
-0.12
0.66
-0.66
0.20
1.86

----------
Target: LCK tyrosine kinase (Homo sapiens, UniProt P06239, C224D/P223M)
Construct: starting from amino acid residue 223 to the end of the protein at residue 509; made in house; host or cells: insect cells
Sequence (P06239 223-509 P223M/C224D): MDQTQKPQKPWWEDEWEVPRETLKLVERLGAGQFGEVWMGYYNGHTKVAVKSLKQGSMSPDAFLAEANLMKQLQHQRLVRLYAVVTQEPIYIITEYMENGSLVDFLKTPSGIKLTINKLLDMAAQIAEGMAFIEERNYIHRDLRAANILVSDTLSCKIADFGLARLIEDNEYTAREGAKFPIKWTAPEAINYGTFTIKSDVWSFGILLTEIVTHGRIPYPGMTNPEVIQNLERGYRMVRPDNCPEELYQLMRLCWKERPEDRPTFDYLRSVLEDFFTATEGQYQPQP
Assay: LCK spectrophotometric assay
Assay type: biochemical
Conditions: Table 1; compound concentration 1 μM; read-out: Lck-P % inhibition
Assignment: determine reported inhibition at 1 µM for the given compounds.
Numbers only, in %.

Hi! Can you tell me inhibition at 1 µM for each of these compounds?
1. O=C(Nc1cccc(C(=O)c2ccc3c(/C=N/n4cccc4)n[nH]c3c2)c1)c1ccccc1
2. Cc1cc(C(=O)Nc2cc(Nc3ccc4c(/C=C/c5ccccn5)n[nH]c4c3)ccc2F)n(C)n1
3. Cc1cc(C(=O)Nc2cccc(Oc3ccc4c(/C=C/c5ccccn5)n[nH]c4c3)c2)n(C)n1
4. Cc1cnccc1C(=O)Nc1cccc(C(=O)c2ccc3c(/C=C/c4ccccn4)n[nH]c3c2)c1
5. CCn1nc(C)cc1C(=O)Nc1cc(C(=O)c2ccc3c(/C=C/c4ccccn4)n[nH]c3c2)c(C)cc1C
6. C#CCNC(=O)c1ccccc1Nc1ccc2c(/C=C/c3ccccn3)n[nH]c2c1
7. O=C(c1cccc(NC(=O)c2ccccn2)c1)c1ccc2c(/C=C/c3ccccn3)n[nH]c2c1

Solution:
1. 86
2. 11
3. 30
4. 16
5. 14
6. 10
7. 49

----------
Test: Determination of inhibitor concentration in mouse plasma after intraperitoneal and oral dosing
Assay type: in vivo
Conditions: female, PO, 25 mg/kg, vehicle 0.5% CMC
Assignment: determine reported AUC(0-t) for the given molecules.
One number for each entry, in ng·h/mL.

[[record]]
molecule = "CCn1nc(C)cc1C(=O)Nc1cccc(C(=O)c2ccc3c(/C=C/c4ccccn4)n[nH]c3c2)c1.Cl [Example 59(a)]"
quantity_unit = "ng·h/mL"
numeric_readout = 50800


Okay, now this molecule:
Problem: Assign AUC(0-t) to the following record: CCn1nc(C)cc1C(=O)Nc1cccc(Oc2ccc3c(/C=C/c4ccccn4)n[nH]c3c2)c1.Cl [Example 59(e)]
Solution: 12500

----------
Assay: Human liver microsome (HLM) assay
Assay type: in vitro ADME
Conditions: human liver microsomes, 5 μM test compound
Assay metric: % remain (HLM, 2 h) (%)
One number for each entry, in %.

Completed entries (count: 3):
[[record]]
molecule = "CCOCCNC(=O)c1ccccc1Sc1ccc2c(/C=C/c3ccccn3)n[nH]c2c1 [Example 35(z)]"
numeric_readout = 2

[[record]]
molecule = "COc1cccc(CNC(=O)c2ccccc2Sc2ccc3c(/C=C/c4ccccn4)n[nH]c3c2)c1"
numeric_readout = 15

[[record]]
molecule = "COc1ccc(CNC(=O)c2ccccc2Sc2ccc3c(/C=C/c4ccccn4)n[nH]c3c2)cc1"
numeric_readout = 53


Okay, now this molecule:
Problem: Assign % remain (HLM, 2 h) to the following record: CCNC(=O)c1ccccc1Sc1ccc2c(/C=C/c3ccccn3)n[nH]c2c1
Solution: 37

----------
Assay: Determination of inhibitor concentration in mouse plasma after intraperitoneal and oral dosing
Type: in vivo
Details: female, PO, 40 mg/kg, vehicle 0.5% CMC, read-out: Cmin (7 hr conc.)
Procedure: Blood collection was via ocular bleed at 0.5, 1, 4 hr with the final time point, 7 hour, via intracardiac puncture. The blood was centrifuged to collect plasma, which was then stored at −80° C. until analysis. Samples were prepared for analysis using an internal standard and sodium hydroxide. […] The samples were then analyzed via HPLC or LC-MS. Compound levels were quantitated by generating a standard curve of known compound concentration in mouse plasma.
Assignment: determine reported concentration at 7 h for the given compounds.
Answers are plain numbers, in ng/mL.

[[record]]
compound = "Cc1cc(C(=O)Nc2cc(Nc3ccc4c(/C=C/c5ccccn5)n[nH]c4c3)ccc2F)n(C)n1.Cl [Example 59(d), Hydrochloride]"
numeric_readout = 4140


Okay, now this compound:
Problem: Assign concentration at 7 h to the following record: CCn1nc(C)cc1C(=O)Nc1cccc(C(=O)c2ccc3c(/C=C/c4ccccn4)n[nH]c3c2)c1.Cl [Example 59(a), Hydrochloride]
Solution: 1880
